System: E6SM
Assay: Minimum inhibitory concentration required to reduce virus induced cytopathicity in embryonic skin muscle (E6SM) cell culture of virus HSV-2 (G) was measured
Format: functional
Conditions: Homo sapiens
# maps each entry to its MIC

Input line: Quick one: MIC for O=c1[nH]c(=O)n([C@H]2C[C@H](O)[C@@H](CO)O2)cc1-c1cc(Br)no1 ?
Output line: > 200 µg/mL

Input line: Quick one: MIC for O=c1[nH]c(=O)n([C@H]2C[C@H](O)[C@@H](CO)O2)cc1-c1cc(-c2ccc(Cl)cc2)no1 ?
Output line: > 40 µg/mL

Input line: Quick one: MIC for O=c1[nH]c(=O)n([C@H]2C[C@H](O)[C@@H](CO)O2)cc1-c1cc(-c2ccccc2)no1 ?
Output line: > 40 µg/mL

***
Input line: Quick one: MIC for O=c1[nH]c(=O)n([C@H]2C[C@H](O)[C@@H](CO)O2)cc1/C=C/Br [BRIVUDINE] ?
Output line: 10 µg/mL

---

Tested on: E6SM
Experiment: Minimum inhibitory concentration required to reduce virus induced cytopathicity in embryonic skin muscle (E6SM) cell culture of virus HSV-1 (Mc Intyre) was measured
Type: functional
Conditions: Homo sapiens
# maps each entry to its MIC
Answer format: numeric, µg/mL implied, no suffix.

Input line: Quick one: MIC for O=c1[nH]c(=O)n([C@H]2C[C@H](O)[C@@H](CO)O2)cc1/C=C/Br ?
Output line: 0.07

Shift focus to the following entry.
Input line: Quick one: MIC for O=c1[nH]c(=O)n([C@H]2C[C@H](O)[C@@H](CO)O2)cc1-c1cc(Br)no1 ?
Output line: 2

---

System: HEL
Assay: In vitro antiviral activity and cytotoxicity, and minimum inhibitory concentration required to reduce cell growth by 50% in HEL cell culture
Assay type: functional
Conditions: Homo sapiens
ENDPOINT LABEL: MIC

Field: example entries. Status: answers known.
Input line: Quick one: MIC for O=c1[nH]c(=O)n([C@H]2C[C@H](O)[C@@H](CO)O2)cc1/C=C/Br ?
Output line: 200 µg/mL

Input line: Quick one: MIC for O=c1[nH]c(=O)n([C@H]2C[C@H](O)[C@@H](CO)O2)cc1-c1cc(-c2ccc(Cl)cc2)no1 ?
Output line: > 200 µg/mL

Input line: Quick one: MIC for O=c1[nH]c(=O)n([C@H]2C[C@H](O)[C@@H](CO)O2)cc1-c1cc(-c2ccccc2)no1 ?
Output line: > 200 µg/mL

Shift focus to the following entry.
Input line: Quick one: MIC for O=c1[nH]c(=O)n([C@H]2C[C@H](O)[C@@H](CO)O2)cc1-c1cc(Br)no1 ?
Output line: > 50 µg/mL

Just for reference, ChEMBL document CHEMBL1125708 is where these values come from.
